src = patent US12043632B2

Hi there, I'd appreciate the recorded Kd for every entry that follows.
molecular target: JAK2 (JH1domain-catalytic, Y1007F,Y1008F) kinase (Homo sapiens, UniProt O60674, Y1007F/Y1008F); construct: JAK2 (JH1domain-catalytic, Y1007F,Y1008F) kinase was expressed as N-terminal fusion; experiment: JAK2 JH1 Domain Binding Assay; conditions: qPCR readout
Sequence (O60674 849-1124 Y1007F/Y1008F limits assumed): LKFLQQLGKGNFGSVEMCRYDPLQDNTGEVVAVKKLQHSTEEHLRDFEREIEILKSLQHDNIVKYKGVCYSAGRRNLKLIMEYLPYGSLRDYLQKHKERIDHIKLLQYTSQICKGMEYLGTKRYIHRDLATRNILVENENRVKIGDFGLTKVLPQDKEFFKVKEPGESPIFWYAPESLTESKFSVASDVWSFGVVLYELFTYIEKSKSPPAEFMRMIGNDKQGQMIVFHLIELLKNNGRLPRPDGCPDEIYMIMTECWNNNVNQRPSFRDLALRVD

query: Given the molecule CNc1nccn2ncc(Oc3cnc4nc(Nc5cc([C@@H]6CCOC6)nc(C(F)(F)F)c5)n(C)c4c3Cl)c12 (single isomer, unassigned) [Example I-280-a] , what is its reported Kd?
result: 10 to 50 nM

query: Request the reported Kd associated with CN(C)[C@H]1CCN(Cc2cc(C(F)(F)F)cc(Nc3nc4ncc(Oc5cnn6ccncc56)c(Cl)c4n3C)c2F)C1 [Example I-285]
result: 10 to 50 nM

query: So what's the measured Kd for this one? CNc1cn2ncc(Oc3cnc4nc(Nc5cc(C(F)(F)F)cn(C)c5=O)n(C)c4c3Cl)c2cn1 [Example I-304]
result: < 10 nM

query: Quick one: Kd of Cn1c(Nc2cc(C(F)(F)F)cn([C@H]3CC[C@H]3O)c2=O)nc2ncc(Oc3cnn4ccncc34)c(Cl)c21 (single isomer, unassigned) [Example I-119-b] ?
result: < 10 nM

query: Report Kd for COc1n[nH]c2ncc(Oc3cnc4nc(Nc5cc(C(F)(F)F)cn(C)c5=O)n(C)c4c3C#N)cc12 [Example I-299] please.
result: < 10 nM

query: I would be grateful if you could share the reported Kd for Cn1c(Nc2cc(C(F)(F)F)cn([C@@H]3CC[C@H]3O)c2=O)nc2ncc(Oc3cnn4ccncc34)c(Cl)c21 (single isomer, unassigned) [Example I-105-b] .
result: < 10 nM

###

target: JAK2 (JH1domain-catalytic, Y1007F,Y1008F) kinase (Homo sapiens, UniProt O60674, Y1007F/Y1008F); construct: JAK2 (JH1domain-catalytic, Y1007F,Y1008F) kinase was expressed as N-terminal fusion; experiment: JAK2 JH1 Domain Binding Assay; settings: qPCR readout
pKd: −log10 of the molar value.
result.type: pKd

query: Would you kindly share the measured pKd for Cn1c(Nc2cc(C(C)(C)C#N)n([C@H]3CCOC3)n2)nc2ncc(Oc3cnc4ccnn4c3)c(Cl)c21 ?
result: 7.30 to 8.00

query: Give the measured pKd of CN1CCC[C@H]1COc1cc(Nc2nc3ncc(Oc4cnn5ccncc45)c(Cl)c3n2C)cc(C(F)(F)F)c1 .
result: > 8.00

query: Quick one: pKd for Cn1c(Nc2cc(C(F)(F)F)cn(CCCN3CCOCC3)c2=O)nc2ncc(Oc3cnn4ccncc34)c(Cl)c21 ?
result: > 8.00

query: Entry Cn1c(Nc2cc(C(C)(C)C)n(C3COCC3O)n2)nc2ncc(Oc3cnn4ccncc34)c(Cl)c21 (single isomer, unassigned) [Example I-48] has what pKd?
result: > 8.00

query: Field request: pKd | item: COc1c(Oc2cnn3ccncc23)cnc2nc(Nc3cc(C4CC4)cn([C@H](C)CC#N)c3=O)n(C)c12 (single isomer, unassigned)
result: > 8.00

query: What does the data say about its pKd? Entry: Cc1c(Oc2cnc3nc(Nc4cc(C(F)(F)F)cn(C)c4=O)n(C)c3c2C#N)cnc2[nH]ccc12
result: 7.30 to 8.00

query: Fill in: pKd of Cn1c(Nc2cc(C(C)(C)C)n([C@@H]3CC[C@@H]3O)n2)nc2ncc(Oc3cnn4ccncc34)c(Cl)c21 (single isomer, unassigned) is ___
result: > 8.00

query: Recorded pKd of COc1c(Oc2cnn3ccccc23)cnc2nc(Nc3cc(C4CC4)cn([C@H]4C[C@@H](O)C4)c3=O)n(C)c12 , please.
result: > 8.00

query: Any idea what pKd was measured for Cn1c(Nc2cc(C(C)(C)C)n(CC#N)n2)nc2ncc(Oc3cnn4ccncc34)c(C(F)F)c21 ?
result: 7.30 to 8.00

query: Bench note: what pKd did CNc1cn2ncc(Oc3cnc4nc(Nc5cc6n(n5)CCCC6(C)C)n(C)c4c3Cl)c2cn1 show?
result: > 8.00

query: Sample CNc1nccn2ncc(Oc3cnc4nc(Nc5cc(CN6CC[C@@H](N(C)C)C6)cc(C(F)(F)F)c5)n(C)c4c3Cl)c12 — what was its pKd?
result: 7.30 to 8.00

query: Request the reported pKd associated with C[C@@H](CO)Cn1cc(C2CC2)cc(Nc2nc3ncc(Oc4cnn5ccncc45)c(Cl)c3n2C)c1=O (single isomer, unassigned)
result: > 8.00

query: Using the record for Cn1c(Nc2cc(C(C)(C)C)n([C@H]3CCC[C@H]3O)n2)nc2ncc(Oc3cnn4ccncc34)c(C(F)F)c21 (single isomer, unassigned) , report its pKd.
result: 6.00 to 7.30

query: Suppose we examine the compound COCCOc1cn2ncc(Oc3cnc4nc(Nc5cc(C(F)(F)F)cn(C)c5=O)n(C)c4c3Cl)c2cn1 ; what pKd value has been reported?
result: > 8.00

query: What does the data say about its pKd? Entry: Cn1c(Nc2cc(C3CC3)nn([C@@H]3CCCOC3)c2=O)nc2ncc(Oc3cnn4ccccc34)c(Cl)c21 (single isomer, unassigned)
result: > 8.00

query: Given Cc1n[nH]c2ncc(Oc3cnc4nc(Nc5cc(C(C)(C)C)n([C@H]6CCOC6)n5)n(C)c4c3)cc12 , state its recorded pKd.
result: > 8.00

query: // query pKd value for entry CNc1nccn2ncc(Oc3cnc4nc(Oc5cc(C6CC6)cn(C(C)C)c5=O)n(C)c4c3Cl)c12
result: 7.30 to 8.00

query: Recorded pKd for Cn1c(Nc2cc(C(C)(C)C)n([C@@H]3CCOC3)n2)nc2ncc(Oc3cnc4[nH]c(C5CC5)cc4c3)cc21 , please?
result: 7.30 to 8.00

query: Need pKd, item Cn1c(Nc2cc(N3CC[C@@H](O)C3)cc(C(F)(F)F)c2)nc2ncc(Oc3cnn4ccncc34)c(Cl)c21
result: > 8.00

query: I would be grateful if you could share the reported pKd for Cn1cc(C2CC2)cc(Nc2nc3ncc(Oc4cnc5[nH]ncc5c4)c(Cl)c3n2C)c1=O .
result: > 8.00

query: Give the measured pKd of Cn1c(Nc2cc3n(n2)CCCC3(C)C)nc2ncc(Oc3cnn4cc(OCCO)ncc34)c(Cl)c21 .
result: > 8.00

query: For the compound CNc1nccn2ncc(Oc3cnc4nc(Nc5cc(N6CCN(C)CC6)cc(C(F)(F)F)c5)n(C)c4c3Cl)c12 , what pKd is on record?
result: 7.30 to 8.00

query: What value of measured pKd is listed for Cn1cc(C(F)(F)F)cc(Nc2nc3ncc(Oc4cnn5cc(OCCN6CCOCC6)ccc45)c(C#N)c3n2C)c1=O ?
result: > 8.00

query: Report pKd for Cn1c(Nc2cc(C3CC3)cn([C@H]3C[C@H](O)C3)c2=O)nc2ncc(Oc3cnn4ccccc34)c(Cl)c21 please.
result: > 8.00

query: Need pKd, item CN(C)c1n[nH]c2ncc(Oc3cnc4nc(Nc5cc(C(F)(F)F)cn(C)c5=O)n(C)c4c3C#N)cc12
result: > 8.00

query: Could you share which pKd value was measured for Cn1cc(C(F)(F)F)cc(Nc2nc3ncc(Oc4cnc5[nH]cc(C#N)c5c4)c(C#N)c3n2C)c1=O ?
result: 6.00 to 7.30

###

target: JAK2 (JH1domain-catalytic, Y1007F,Y1008F) kinase (Homo sapiens, UniProt O60674, Y1007F/Y1008F); construct: JAK2 (JH1domain-catalytic, Y1007F,Y1008F) kinase was expressed as N-terminal fusion; assay: JAK2 JH1 Domain Binding Assay; conditions: qPCR readout
Provide the recorded Kd for the entries that follow.

query: Value lookup for Kd; key = CN1CC[C@H](n2nc(Nc3nc4ncc(Oc5cnn6cc(F)ccc56)c(Cl)c4n3C)cc2C(C)(C)C)C1
result: < 10 nM

query: What value of Kd has been reported for the following compound? Cn1c(Nc2cc(C(F)(F)F)cn(CCCN3CCOCC3)c2=O)nc2ncc(Oc3cnn4ccccc34)c(C#N)c21
result: < 10 nM

query: // query Kd value for entry Cn1cc(C(F)(F)F)cc(Nc2nc3ncc(Oc4cnn5cc(OCCN6CCOCC6)ncc45)c(C#N)c3n2C)c1=O
result: < 10 nM

query: Query (compound): CNc1nccn2ncc(Oc3cnc4nc(Nc5cc(CN(C)C)cc(C(F)(F)F)c5)n(C)c4c3Cl)c12 ; field requested: Kd
result: < 10 nM

query: Any idea what Kd was measured for CNc1nccn2ncc(Oc3cnc4nc(Nc5cc(CN6CC[C@H](OC)C6)cc(C(F)(F)F)c5)n(C)c4c3Cl)c12 ?
result: 10 to 50 nM

query: What measured Kd goes with Cn1cc(C(F)(F)F)cc(Nc2nc3ncc(Oc4cnn5cc(NCCN6CCC(F)(F)C6)ncc45)c(Cl)c3n2C)c1=O ?
result: < 10 nM

query: Please report the recorded Kd for CNc1cn2ncc(Oc3cnc4nc(Nc5cc(C(F)(F)F)n([C@@H]6CCOC6)n5)n(C)c4c3Cl)c2cn1 .
result: < 10 nM

query: Which Kd value is on record for CNc1nccn2ncc(Oc3cnc4nc(Nc5cc(C6CCN(C)CC6)cc(C(F)(F)F)c5)n(C)c4c3Cl)c12 ?
result: < 10 nM

query: Which value of Kd has been reported for CC(O)Cn1nc(Nc2nc3ncc(Oc4cnn5ccncc45)c(Cl)c3n2C)cc1C(C)(C)C (single isomer, unassigned) in the records?
result: < 10 nM

query: Using the record for Cc1n[nH]c2ncc(Oc3cnc4nc(Nc5cc(C(F)(F)F)cn(C)c5=O)n(C)c4c3C#N)cc12 , report its Kd.
result: < 10 nM

query: # query: Kd of entry Cn1c(Nc2nc([C@@H]3CCOC3)c(C(C)(C)C)s2)nc2ncc(Oc3cnn4ccnc4c3)c(Cl)c21 (single isomer, unassigned)
result: 10 to 50 nM

query: Which Kd value is on record for Cn1c(Nc2cc(C(F)(F)F)cn(-c3cccnc3)c2=O)nc2ncc(Oc3cnn4ccccc34)c(C#N)c21 ?
result: < 10 nM

query: Value lookup for Kd; key = CNc1nccn2ncc(Oc3cnc4nc(Nc5cc(CN6CC(F)C6)cc(C(F)(F)F)c5)n(C)c4c3Cl)c12
result: 10 to 50 nM

query: Please look up its Kd: COc1c(Oc2cnn3ccncc23)cnc2nc(Nc3cc(C4CC4)cn([C@H]4C[C@H](O)C4)c3=O)n(C)c12
result: < 10 nM
